assay: Metabolic (microsomal) stability (mouse); type: in vitro ADME; conditions: microsomes, read-out: Metabolic Stability (Mouse) t1/2 (converted)
QUANTITY MEASURED: half-life (min)
# unit: min | format: bare number

Here's what some known entries look like.
O=C(CSc1cnn[nH]1)Nc1ccccn1 | 42.6
N#Cc1ccccc1NC(=O)CSc1cnn[nH]1 | 67.8
O=C(CSc1cnn[nH]1)Nc1ccccc1F | 16.2

[ask] I'd like to know its half-life. The compound in question is O=C(CSc1cnn[nH]1)Nc1ccc(F)cc1
[reply] 39

[ask] And O=C(CSc1cnn[nH]1)Nc1nccs1 ?
[reply] 120

###

experiment: Metabolic (microsomal) stability (mouse); assay type: in vitro ADME; settings: microsomes
Listing of recorded CLint scaled by entry.

Some compounds with recorded CLint scaled:
O=C(CSc1cnn[nH]1)Nc1ccc(F)cc1 [Compound 2] | 87.4 mL/min/kg
O=C(CSc1cnn[nH]1)Nc1ccccn1 [Compound 9] | 80.4 mL/min/kg
O=C(CSc1cnn[nH]1)Nc1nccs1 [Compound 25] | 29.1 mL/min/kg

[ask] For N#Cc1ccccc1NC(=O)CSc1cnn[nH]1 [Compound 3] , what is its reported CLint scaled?
[reply] 50.5 mL/min/kg

[ask] Input O=C(CSc1cnn[nH]1)Nc1ccccc1F [Compound 1]
[reply] 209 mL/min/kg

###

Known half-life of a selection of molecules
experiment: Plasma stability (mouse); assay type: in vitro ADME; conditions: read-out: Plasma Stability (Mouse) t1/2 (converted)
Write the answer as a number in h, unit excluded.

Would you please look over these solved cases?
O=C(CSc1cnn[nH]1)Nc1ccc(F)cc1 [Compound 2] | 2.5
O=C(CSc1cnn[nH]1)Nc1ccccn1 [Compound 9] | 2.7
N#Cc1ccccc1NC(=O)CSc1cnn[nH]1 [Compound 3] | 1.1
O=C(CSc1cnn[nH]1)Nc1nccs1 [Compound 25] | 13.3

[ask] What half-life value was documented for this molecule, O=C(CSc1cnn[nH]1)Nc1ccccc1F [Compound 1] ?
[reply] 0.39

###

assay: Solubility; type: physicochemical; conditions: pH 7.4, aqueous buffer, pH = 7.4; average of triplicate ± standard deviation; read-out: Avg. Sol
Recorded measurements of solubility, one per entry
Record the value in µg/mL, omitting the unit from your answer.

Observe how each entry below is paired with its result.
O=C(CSc1cnn[nH]1)Nc1ccccn1 | 20
O=C(CSc1cnn[nH]1)Nc1ccc(F)cc1 | 18

Here is the next item to consider.
[ask] Entry O=C(CSc1cnn[nH]1)Nc1ccccc1F : reported solubility = ?
[reply] 16

###

Property: melting point; scope: individual molecules

Recorded results for 5 molecules are shown here.
Cc1nnc(SCC(=O)Nc2ccccc2)s1 [Compound 64] | 153 to 154 °C
COc1ccccc1NC(=O)CSc1c[nH]nn1 [Compound 17] | 99 to 100 °C
O=C(CSc1cnn[nH]1)NCc1ccc(F)cc1 [Compound 39] | 122 to 124 °C
N#Cc1ccc(NC(=O)CSc2c[nH]nn2)cn1 [Compound 15] | 198 to 199 °C
Cn1nnnc1SCC(=O)Nc1ccccc1F [Compound 65] | 137 to 139 °C

[ask] Given O=C(CSc1c[nH]nn1)Nc1ccc(I)cc1 [Compound 20] , state its recorded melting point.
[reply] 166 to 168 °C

[ask] Moving on to N#Cc1cccc(NC(=O)CSc2c[nH]nn2)c1 [Compound 8]
[reply] 158 to 159 °C

[ask] Another molecule: O=C(CSc1c[nH]nn1)Nc1ccc(F)cn1 [Compound 14]
[reply] 151 to 153 °C

[ask] Further, for O=C(CSc1c[nH]nn1)Nc1ncccn1 [Compound 27] ?
[reply] 136 to 138 °C

[ask] Would you mind doing COc1ccc(NC(=O)CSc2c[nH]nn2)cc1 [Compound 18] as well?
[reply] 130 to 131 °C

[ask] Param item: O=C(CSc1cnn[nH]1)NCc1ccc(C(F)(F)F)cc1 [Compound 44]
[reply] 133 to 135 °C

[ask] Follow-up entry: O=C(CSc1c[nH]nn1)Nc1ccccc1I [Compound 19]
[reply] 122 to 124 °C

[ask] And CN(C(=O)CSc1c[nH]nn1)c1ccc(F)cc1 [Compound 23] ?
[reply] 95 to 96 °C

[ask] Would you mind doing N#Cc1ccc(NC(=O)CSc2c[nH]nn2)nc1 [Compound 16] as well?
[reply] 118 to 119 °C

[ask] Try the molecule O=C(CSc1c[nH]nn1)Nc1ccncc1 [Compound 10]
[reply] 187 to 188 °C

[ask] Try this molecule next: O=C(CSc1nncs1)Nc1ccccc1F [Compound 66]
[reply] 123 to 125 °C

[ask] Proceed to O=C(CSc1c[nH]nn1)NC1CCCCC1 [Compound 31]
[reply] 118 to 119 °C

[ask] For O=C(CSc1c[nH]nn1)Nc1ncccc1F [Compound 13] then?
[reply] 99 to 100 °C
